Experiment: Mouse blood levels after single intramuscular injection
Type: in vivo, mice
Details: in vivo, im, 20 mg/kg
Protocol: The absorption of some of the preferred compounds were determined in mice following a single intramuscular injection of the test compound (dissolved in 0.1M phosphate buffer; pH 7) at a dosage of 20 mg/kg. Blood samples were collected from the orbital sinuses into heparinized capillary tubes and assayed in Nutrient Agar (pH 6.6) using E. coli Ess-22-31 as the test organism. […]
concentration at 1 h values for the compounds below.
The response must be a number in ng/mL with no trailing unit.

[[record]]
compound = "C=CCO/N=C(\\C(=O)NC1C(=O)N2C(C(=O)[O-])=C(C[n+]3ccc4scnc4c3)CSC12)c1csc(N)n1 (stereo not shown) [Ic]"
measurement = 3600

[[record]]
compound = "CCO/N=C(\\C(=O)NC1C(=O)N2C(C(=O)[O-])=C(C[n+]3ccc4scnc4c3)CSC12)c1csc(N)n1 (stereo not shown) [Ib]"
measurement = 920

[[record]]
compound = "CO/N=C(\\C(=O)NC1C(=O)N2C(C(=O)[O-])=C(C[n+]3ccc4sc(NC(=O)OC)nc4c3)CS[C@H]12)c1csc(N)n1 (stereo partly shown) [Is]"
measurement = 4600

[[record]]
compound = "CO/N=C(\\C(=O)NC1C(=O)N2C(C(=O)[O-])=C(C[n+]3ccc4sc(NC(=O)CN)nc4c3)CS[C@H]12)c1csc(N)n1 (stereo partly shown) [Iq]"
measurement = 8800

[[record]]
compound = "CO/N=C(\\C(=O)NC1C(=O)N2C(C(=O)[O-])=C(C[n+]3ccc4sc(C)nc4c3)CSC12)c1csc(N)n1 (stereo not shown) [Ih]"
measurement = 3000

[[record]]
compound = "Nc1nc(/C(=N/OC2(C(=O)O)CCC2)C(=O)NC2C(=O)N3C(C(=O)[O-])=C(C[n+]4ccc5sc(N)nc5c4)CS[C@H]23)cs1 (stereo partly shown) [Ik]"
measurement = 4100


# ---- query compound ----
Record request: concentration at 1 h value, item CO/N=C(\C(=O)NC1C(=O)N2C(C(=O)[O-])=C(C[n+]3ccc4sc(C=O)nc4c3)CSC12)c1csc(N)n1 (stereo not shown) [Iw]
2000
